# Experimental target: human cation-independent mannose-6-phosphate receptor, native, on cells (human, UniProt P11717 41-2491)
# Sequence (P11717 41-2491): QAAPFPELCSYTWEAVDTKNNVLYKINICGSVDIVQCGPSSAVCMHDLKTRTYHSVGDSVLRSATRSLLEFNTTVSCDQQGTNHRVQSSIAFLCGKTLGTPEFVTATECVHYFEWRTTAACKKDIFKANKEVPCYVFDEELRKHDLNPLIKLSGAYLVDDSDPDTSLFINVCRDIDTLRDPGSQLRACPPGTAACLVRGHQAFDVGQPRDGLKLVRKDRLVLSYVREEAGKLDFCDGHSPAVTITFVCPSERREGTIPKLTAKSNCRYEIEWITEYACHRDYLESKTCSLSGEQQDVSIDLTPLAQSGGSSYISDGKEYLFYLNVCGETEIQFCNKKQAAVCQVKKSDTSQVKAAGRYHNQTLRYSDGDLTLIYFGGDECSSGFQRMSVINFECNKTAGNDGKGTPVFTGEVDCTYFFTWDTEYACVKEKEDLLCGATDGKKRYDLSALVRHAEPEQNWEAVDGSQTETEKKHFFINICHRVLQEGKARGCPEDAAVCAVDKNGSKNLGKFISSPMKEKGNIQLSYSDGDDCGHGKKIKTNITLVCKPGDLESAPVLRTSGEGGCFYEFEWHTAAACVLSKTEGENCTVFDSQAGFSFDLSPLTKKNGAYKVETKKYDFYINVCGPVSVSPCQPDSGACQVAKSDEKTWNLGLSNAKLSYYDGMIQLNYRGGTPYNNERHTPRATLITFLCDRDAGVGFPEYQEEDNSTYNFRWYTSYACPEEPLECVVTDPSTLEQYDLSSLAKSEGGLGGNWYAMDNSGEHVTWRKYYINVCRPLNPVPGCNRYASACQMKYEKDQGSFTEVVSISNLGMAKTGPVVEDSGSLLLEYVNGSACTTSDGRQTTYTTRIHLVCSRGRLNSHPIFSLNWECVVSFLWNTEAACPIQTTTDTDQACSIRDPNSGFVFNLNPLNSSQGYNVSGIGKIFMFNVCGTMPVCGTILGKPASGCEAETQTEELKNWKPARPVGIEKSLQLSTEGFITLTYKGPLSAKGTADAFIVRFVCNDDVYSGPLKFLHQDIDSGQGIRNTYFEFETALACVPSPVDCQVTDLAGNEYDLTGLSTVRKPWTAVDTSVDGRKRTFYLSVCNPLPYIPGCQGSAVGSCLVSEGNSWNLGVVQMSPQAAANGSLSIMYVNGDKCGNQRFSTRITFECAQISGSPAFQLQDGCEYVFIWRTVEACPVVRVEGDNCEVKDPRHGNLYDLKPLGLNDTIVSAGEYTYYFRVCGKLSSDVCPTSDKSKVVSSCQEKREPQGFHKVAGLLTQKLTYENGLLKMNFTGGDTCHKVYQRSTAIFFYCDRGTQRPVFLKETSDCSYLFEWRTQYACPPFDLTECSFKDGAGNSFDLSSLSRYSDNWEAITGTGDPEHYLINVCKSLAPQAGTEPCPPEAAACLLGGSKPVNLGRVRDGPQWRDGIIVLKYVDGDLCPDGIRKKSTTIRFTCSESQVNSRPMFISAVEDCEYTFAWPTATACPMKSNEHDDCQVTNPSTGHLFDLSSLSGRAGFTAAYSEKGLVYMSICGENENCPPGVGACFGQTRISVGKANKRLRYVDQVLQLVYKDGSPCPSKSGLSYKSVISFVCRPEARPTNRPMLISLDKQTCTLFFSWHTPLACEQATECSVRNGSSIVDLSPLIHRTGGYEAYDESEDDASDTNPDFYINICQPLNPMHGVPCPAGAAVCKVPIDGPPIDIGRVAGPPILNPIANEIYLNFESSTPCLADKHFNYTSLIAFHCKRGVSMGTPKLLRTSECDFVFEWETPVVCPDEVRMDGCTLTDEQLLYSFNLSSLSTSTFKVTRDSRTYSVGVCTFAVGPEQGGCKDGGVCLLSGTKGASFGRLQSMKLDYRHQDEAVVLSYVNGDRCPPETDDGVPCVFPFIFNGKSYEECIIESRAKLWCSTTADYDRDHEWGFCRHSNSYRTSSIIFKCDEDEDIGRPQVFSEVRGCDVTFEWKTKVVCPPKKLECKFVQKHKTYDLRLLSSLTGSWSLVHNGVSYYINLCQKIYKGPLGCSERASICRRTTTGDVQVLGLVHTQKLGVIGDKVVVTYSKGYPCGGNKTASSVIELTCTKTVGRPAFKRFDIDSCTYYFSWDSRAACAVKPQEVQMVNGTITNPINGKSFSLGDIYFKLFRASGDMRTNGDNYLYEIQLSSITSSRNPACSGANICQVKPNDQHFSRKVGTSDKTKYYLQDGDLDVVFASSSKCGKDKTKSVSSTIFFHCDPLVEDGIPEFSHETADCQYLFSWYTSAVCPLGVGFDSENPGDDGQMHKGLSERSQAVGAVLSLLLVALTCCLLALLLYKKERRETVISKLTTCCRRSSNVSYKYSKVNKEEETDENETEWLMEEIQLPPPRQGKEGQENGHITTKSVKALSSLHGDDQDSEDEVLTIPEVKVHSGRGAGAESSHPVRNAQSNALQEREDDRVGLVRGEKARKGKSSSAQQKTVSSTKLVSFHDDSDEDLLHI
# Assay text: cell-based or functional assay
Quantity kind: internalisation rate (live-cell imaging of AF488-VHH on MCF7 cells) (summed AF-voxels/minute)
Only the number, expressed in summed AF-voxels/minute, is required.

anti-CI-M6PR VHH8 (VHH, His6-tagged (Pichia pastoris)) VHH: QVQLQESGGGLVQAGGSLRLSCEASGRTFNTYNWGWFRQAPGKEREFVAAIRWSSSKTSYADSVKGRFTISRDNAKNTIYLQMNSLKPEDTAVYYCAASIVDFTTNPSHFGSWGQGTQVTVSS | 673000
anti-CI-M6PR VHH1 (VHH, His6-tagged; made in Pichia pastoris, later also in E. coli WK6) VHH: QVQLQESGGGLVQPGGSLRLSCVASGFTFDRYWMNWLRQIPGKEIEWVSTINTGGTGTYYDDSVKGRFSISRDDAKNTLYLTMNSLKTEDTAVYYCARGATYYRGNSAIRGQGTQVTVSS | 1.38e+06
anti-CI-M6PR VHH5 (VHH, His6-tagged; made in Pichia pastoris, later also in E. coli WK6) VHH: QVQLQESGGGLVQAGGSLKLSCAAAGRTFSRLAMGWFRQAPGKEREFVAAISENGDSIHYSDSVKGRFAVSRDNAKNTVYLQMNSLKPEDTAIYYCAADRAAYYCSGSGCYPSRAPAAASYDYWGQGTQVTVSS | 687000

Find the measured internalisation rate (live-cell imaging of AF488-VHH on MCF7 cells) of anti-CI-M6PR VHH7 (VHH, His6-tagged (Pichia pastoris)) VHH: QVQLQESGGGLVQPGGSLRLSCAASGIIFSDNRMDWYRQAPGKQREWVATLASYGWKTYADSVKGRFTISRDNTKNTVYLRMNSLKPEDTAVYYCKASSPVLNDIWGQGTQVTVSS and report it.
1.26e+06
